# measurement-target: 11-beta-hydroxysteroid dehydrogenase 1 (Homo sapiens)
# Sequence (P28845 whole entry): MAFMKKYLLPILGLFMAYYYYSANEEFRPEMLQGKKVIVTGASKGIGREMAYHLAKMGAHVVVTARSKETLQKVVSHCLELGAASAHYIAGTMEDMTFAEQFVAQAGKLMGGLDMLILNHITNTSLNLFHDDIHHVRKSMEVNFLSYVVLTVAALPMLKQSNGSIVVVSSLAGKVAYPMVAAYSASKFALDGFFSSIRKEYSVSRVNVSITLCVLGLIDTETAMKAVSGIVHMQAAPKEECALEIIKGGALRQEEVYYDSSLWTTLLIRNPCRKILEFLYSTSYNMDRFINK
# test-summary: Inhibition of human 11-beta HSD1 transfected in HEK293 cell microsomes assessed as decrease in [3H]cortisol generation using [3H]cortisone as substrate measured after 60 mins by scintillation proximity assay
quantity-name: IC50 (nM)
Use nM as the unit, but write only the number.

O=C(C1CCCCC1)N1CCC[C@H](c2nc(-c3ccccc3)no2)C1	71
O=C(c1ccco1)N1CCC[C@H](c2nc(-c3ccccc3)no2)C1	659
CC1(C)C(C(=O)N2CCC[C@H](c3nc(-c4ccccc4)no3)C2)C1(C)C	793
Cc1c(Cl)cccc1C(=O)N1CCC[C@H](c2nc(-c3ccccc3)no2)C1	27
Cc1cccc(C(=O)N2CCC[C@H](c3nc(-c4ccccc4)no3)C2)c1Cl	28
O=C(c1cccc(Cl)c1)N1CCC[C@H](c2nc(-c3ccccc3)no2)C1	741

IC50 reading for Cn1cccc1C(=O)N1CCC[C@H](c2nc(-c3ccccc3)no2)C1 : 715

IC50 reading for Cc1ccccc1C(=O)N1CCC[C@H](c2nc(-c3ccccc3)no2)C1 : 435

IC50 reading for Cc1c(Cl)cccc1C(=O)N1CCC[C@H](c2nc(-c3ccc(F)cc3)no2)C1 : 956

IC50 reading for Cn1ccc2c(C(=O)N3CCC[C@H](c4nc(-c5ccccc5)no4)C3)cccc21 : 141

IC50 reading for Cc1c(Cl)cccc1C(=O)N1CCC[C@H](c2noc(-c3ccccc3)n2)C1 : 107

IC50 reading for Cc1c(Cl)cccc1C(=O)N1CCC[C@H](c2nnc(-c3ccccc3)o2)C1 : 1320

IC50 reading for O=C(c1ccc(Cl)cc1)N1CCC[C@H](c2nc(-c3ccccc3)no2)C1 : 277

###

# test-summary: Clearance in rat at 3 mg/kg, iv
# Assay type: ADME, organism-based
# Parameters: dose 3 mg/kg, route intravenous
# conditions-used: in vivo
quantity-name: clearance (mL/min/kg)
Use mL/min/kg as the unit, but write only the number.

clearance reading for Cc1c(Cl)cccc1S(=O)(=O)N1CCC[C@H](C(=O)NC2CCCCC2)C1 : 130

###

# test-summary: Half life in rat at 6 mg/kg, po
# Type: ADME, organism-based
# Parameters: dose 6 mg/kg, route oral
# conditions-used: in vivo
quantity-name: half-life (h)
Use h as the unit, but write only the number.

Answered examples (2):
Cc1c(Br)cccc1C(=O)N1CCC[C@H](c2nc(-c3ccccc3)no2)C1	2.1
O=C(C1CCCCC1)N1CCC[C@H](c2nc(-c3ccccc3)no2)C1	1.3

half-life reading for Cc1c(Cl)cccc1S(=O)(=O)N1CCC[C@H](C(=O)NC2CCCCC2)C1 : 0.4

###

# measurement-target: CYP3A4 (Homo sapiens, UniProt P08684)
# Sequence (P08684 whole entry): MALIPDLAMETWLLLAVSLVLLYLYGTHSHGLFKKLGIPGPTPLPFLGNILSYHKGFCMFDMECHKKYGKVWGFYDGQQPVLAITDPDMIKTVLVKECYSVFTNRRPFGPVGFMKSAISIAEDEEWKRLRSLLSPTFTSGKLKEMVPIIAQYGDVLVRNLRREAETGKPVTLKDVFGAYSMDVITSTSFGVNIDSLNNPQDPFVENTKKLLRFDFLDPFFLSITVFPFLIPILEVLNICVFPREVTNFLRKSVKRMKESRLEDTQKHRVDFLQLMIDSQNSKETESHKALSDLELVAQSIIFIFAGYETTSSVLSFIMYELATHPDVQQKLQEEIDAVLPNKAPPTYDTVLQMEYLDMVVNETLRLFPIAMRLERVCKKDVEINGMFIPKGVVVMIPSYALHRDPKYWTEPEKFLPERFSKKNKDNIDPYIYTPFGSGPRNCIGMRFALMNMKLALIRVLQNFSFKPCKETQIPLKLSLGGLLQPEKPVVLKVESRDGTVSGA
# test-summary: Inhibition of CYP3A4 in human microsomes using midazolam as substrate at 10 uM after 5 mins
# Assay type: ADME, Microsome
# conditions-used: probe midazolam
quantity-name: inhibition at 5 min, 10 µM (%)
Use % as the unit, but write only the number.

Answered examples (2):
O=C(C1CCCCC1)N1CCC[C@H](c2nc(-c3ccccc3)no2)C1	7.7
Cc1c(Br)cccc1C(=O)N1CCC[C@H](c2nc(-c3ccccc3)no2)C1	22

inhibition at 5 min, 10 µM reading for Cc1c(Cl)cccc1S(=O)(=O)N1CCC[C@H](C(=O)NC2CCCCC2)C1 : 73
